The entries below are paired with their reported EC90.
- Test system: HCV replicon GT4
- measurementNotes: Cell-based HCV replicon assay, GT4
- conditionSummary: Hepatitis C virus, GT4, 72 h; replicon RNA level by real-time PCR, 3 days

{"compound": "COC(=O)NC(C(=O)N1C[Si](C)(C)C[C@H]1c1ncc(-c2ccc3c(c2)cc2n3[C@H](c3ccc(C4CC4)s3)Oc3cc(-c4cnc([C@@H]5CCCN5C(=O)[C@@H](NC(=O)OC)C(C)C)[nH]4)cc(F)c3-2)[nH]1)C1CCOCC1 (stereo partly drawn) [Compound 14]", "scaleUnit": "pM", "EC90": 1.11}
{"compound": "COC(=O)N[C@H](C(=O)N1CCC[C@H]1c1ncc(-c2cc(F)c3c(c2)O[C@@H](c2ccc(C4CC4)s2)n2c-3cc3cc(-c4cnc([C@@H]5C[Si](C)(C)CN5C(=O)[C@@H](NC(=O)OC)[C@@H]5CCOC(C)(C)C5)[nH]4)ccc32)[nH]1)C(C)C [Compound 15]", "scaleUnit": "pM", "EC90": 1.36}
{"compound": "COC(=O)NC(C(=O)N1C[Si](C)(C)C[C@H]1c1ncc(-c2ccc3c(c2)cc2n3[C@H](c3ccc(C4CC4)s3)Oc3cc(-c4cnc([C@@H]5CCCN5C(=O)[C@@H](NC(=O)OC)C(C)C)[nH]4)cc(F)c3-2)[nH]1)C1CCC(F)(F)CC1 (stereo partly drawn) [Compound 16]", "scaleUnit": "pM", "EC90": 1.83}
